system: LNCaP tumor-bearing male CB-17 SCID mice; test: Biodistribution 1 h p.i.; assay type: in vivo
Provide the recorded Biodistribution Bone for the entries that follow.

[Q] May I ask what Biodistribution Bone has been recorded for CC(C)(C)[Si]([18F])(c1ccc(C(=O)NC[C@H](NC(=O)CC[C@@H](C(=O)O)N2CCN(CC(=O)[O-])CCN(CC(=O)[O-])CCN(CC(=O)[O-])CC2)C(=O)N[C@H](CCCCNC(=O)CCC(=O)NCCC[C@@H](NC(=O)CC[C@H](NC(=O)N[C@@H](CCC(=O)O)C(=O)O)C(=O)O)C(=O)O)C(=O)O)cc1)C(C)(C)C.[Ga+3] [[^18F, ^natGa]rhPSMA-7.4] ?
[A] 0.62 ± 0.30 % ID/g

[Q] May I ask what Biodistribution Bone has been recorded for CC(C)(C)[Si]([18F])(c1ccc(C(=O)NC[C@@H](NC(=O)CC[C@@H](C(=O)O)N2CCN(CC(=O)[O-])CCN(CC(=O)[O-])CCN(CC(=O)[O-])CC2)C(=O)N[C@H](CCCCNC(=O)CCC(=O)NCCC[C@@H](NC(=O)CC[C@H](NC(=O)N[C@@H](CCC(=O)O)C(=O)O)C(=O)O)C(=O)O)C(=O)O)cc1)C(C)(C)C.[Ga+3] [[^18F, ^natGa]rhPSMA-7.3] ?
[A] 0.38 ± 0.32 % ID/g

[Q] May I ask what Biodistribution Bone has been recorded for CC(C)(C)[Si]([18F])(c1ccc(C(=O)NC[C@@H](NC(=O)CC[C@H](C(=O)O)N2CCN(CC(=O)[O-])CCN(CC(=O)[O-])CCN(CC(=O)[O-])CC2)C(=O)N[C@H](CCCCNC(=O)CCC(=O)NCCC[C@@H](NC(=O)CC[C@H](NC(=O)N[C@@H](CCC(=O)O)C(=O)O)C(=O)O)C(=O)O)C(=O)O)cc1)C(C)(C)C.[Ga+3] [[^18F, ^natGa]rhPSMA-7.1] ?
[A] 0.50 ± 0.31 % ID/g

Measured values drawn from paper PMC7721954 for this set.
